B1: glmS ribozyme (parent)
chain: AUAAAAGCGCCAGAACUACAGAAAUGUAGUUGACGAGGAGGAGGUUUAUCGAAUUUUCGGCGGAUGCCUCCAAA

Variants of: B1
protocol details: KM; higher = weaker cofactor use; RNA array
conditions used: with glucosamine-6-phosphate
measured parameter: KM (µM)

>  <variant spec>
G37U U65G

>  <measured parameter>
KM

>  <output unit>
µM

>  <quantitative result>
1260

$$$$
>  <variant spec>
C11U U30C

>  <measured parameter>
KM

>  <output unit>
µM

>  <quantitative result>
2780

$$$$
>  <variant spec>
C16G U46C

>  <measured parameter>
KM

>  <output unit>
µM

>  <quantitative result>
2310

$$$$
>  <variant spec>
G51A C71A

>  <measured parameter>
KM

>  <output unit>
µM

>  <quantitative result>
105

$$$$
